# maps each entry to its inhibition
# Experimental target: Lytic switch protein BZLF1 (Epstein-Barr virus (strain B95-8)) (UniProt P03206)
# Sequence (P03206 whole entry, looked up): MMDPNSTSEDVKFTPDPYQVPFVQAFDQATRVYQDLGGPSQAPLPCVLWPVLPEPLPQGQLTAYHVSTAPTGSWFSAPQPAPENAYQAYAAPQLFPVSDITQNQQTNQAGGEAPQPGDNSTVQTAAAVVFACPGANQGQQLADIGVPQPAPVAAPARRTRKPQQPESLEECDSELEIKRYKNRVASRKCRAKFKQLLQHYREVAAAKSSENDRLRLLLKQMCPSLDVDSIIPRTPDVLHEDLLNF
# Assay text: Zta-DNA interaction blockers, Epstein-Barr virus – biochemical, fluorescence polarization, single concentration, counter-screen for EBNA-1 inhibitor project, primary screen (AID 2234)
# Reported conditions: ZTA-DNA binding, at 11 µM, stronger effect = higher value
The campaign covered roughly 320,000 compounds. About 480 (0.15%) were called active. Only a selection was taken, and actives are over-represented in it overall.
Quick note: give the figure in %, leave out the unit.

Completed entries (count: 6):
{"Molecule": "Cc1cccc(N2C(=O)N3[C@H](c4ccc(F)cc4)[C@@H]4C(=O)N(C5CCCCC5)C(=O)[C@@H]4[C@]3(Cc3ccccc3)C2=O)c1", "Experimental target": "Lytic switch protein BZLF1 (Epstein-Barr virus (strain B95-8)) (UniProt P03206)", "inhibition / %": -2.81}
{"Molecule": "O=C(CSc1nc(C2CC2)nc2ccccc12)Nc1cccc(O)c1", "Experimental target": "Lytic switch protein BZLF1 (Epstein-Barr virus (strain B95-8)) (UniProt P03206)", "inhibition / %": -4.91}
{"Molecule": "CCOc1ncccc1C(=O)OCC(=O)N1c2ccccc2CC1C (configuration not stated)", "Experimental target": "Lytic switch protein BZLF1 (Epstein-Barr virus (strain B95-8)) (UniProt P03206)", "inhibition / %": 6.32}
{"Molecule": "CC(C(=O)N(C)CC(=O)Nc1ccccc1C(F)(F)F)N1C(=O)c2ccccc2C1=O (configuration not stated)", "Experimental target": "Lytic switch protein BZLF1 (Epstein-Barr virus (strain B95-8)) (UniProt P03206)", "inhibition / %": -0.42}
{"Molecule": "Cc1ccc(C2=NN(C(=O)CSc3nc(N)cc(N)n3)C(c3ccco3)C2)cc1 (configuration not stated)", "Experimental target": "Lytic switch protein BZLF1 (Epstein-Barr virus (strain B95-8)) (UniProt P03206)", "inhibition / %": 0.17}
{"Molecule": "COc1ccccc1CNS(=O)(=O)c1c(C)[nH]c(C)c1C(=O)N1CCCCC1", "Experimental target": "Lytic switch protein BZLF1 (Epstein-Barr virus (strain B95-8)) (UniProt P03206)", "inhibition / %": -3.2}

Q. Entry under review: "CCN1CCN(CCNC(=O)c2ccc(/C=C3/Sc4ccccc4N(Cc4cccc(C)c4)C3=O)cc2)CC1" . Reported inhibition?
A. 56.8

Q. Any idea what inhibition was measured for "COC(=O)c1cc(N2CCNCC2)nc2ccccc12" ?
A. 5.41

Q. Could you tell me which inhibition is on file for CS(=O)(=O)Nc1cccc(C2=NN(C(=O)c3cccc(F)c3)C(c3cccs3)C2)c1 (configuration not stated) ?
A. -3.98

Q. Query: inhibition; subject: "C=CCN(C(=O)Nc1ccc2oc(C)nc2c1)c1ccccc1"
A. 14.4

Q. Any idea what inhibition was measured for "N#C/C=C1\Sc2ccccc2C(=O)N1CC(=O)N1CCN(S(=O)(=O)c2ccccc2)CC1" ?
A. -8.28

Q. Using the record for "COc1ccc(N(CC(=O)Nc2ccc(F)c(F)c2)S(=O)(=O)c2c(C)[nH]c(=O)[nH]c2=O)cc1" , report its inhibition.
A. 3.47

Q. Query: inhibition; subject: "CCN(CC)c1ccc2oc(=O)c(C)nc2c1"
A. 112

Q. Can you share its inhibition? I mean this molecule: "COc1ccc(C)cc1NC(=O)CN1c2cccc3cccc(c23)S1(=O)=O"
A. -1.52

Q. For the molecule "CCOc1ccc(S(=O)(=O)Nc2ccncc2)c(C)c1C" , what inhibition is on record?
A. -10.3

Q. # get_value(readout='inhibition', item= COc1cc(C2/C(=C(\O)c3ccc4c(c3)CC(C)O4)C(=O)C(=O)N2c2nnc(C)s2)cc(OC)c1OC (configuration not stated) )
A. -16.7

----------
Listed compounds paired with reported inhibition
# Experimental target: Lytic switch protein BZLF1 (Epstein-Barr virus (strain B95-8)) (UniProt P03206)
# Assay text: Zta-DNA interaction blockers, Epstein-Barr virus – biochemical, fluorescence polarization, single concentration, counter-screen for EBNA-1 inhibitor project, primary screen (AID 2234)
# Reported conditions: ZTA-DNA binding, at 11 µM, stronger effect = higher value
In all, about 320,000 compounds went through this assay and about 480 (0.15%) were called active. The full list was thinned out, with actives kept by preference.
# value in %; strip the unit string

Please review the following examples before continuing.
{"Compound": "Cc1nc(N)c(Br)c(C)c1Br", "Unit abbrev": "%", "Value reported": 10.1}
{"Compound": "CCC1CCC/C1=N\\NC(=O)c1ccc(Cl)cc1 (configuration not stated)", "Unit abbrev": "%", "Value reported": 4.98}
{"Compound": "FC(F)(F)c1ccc2c3n(nc2c1)CCN=C3c1ccc(Cl)cc1", "Unit abbrev": "%", "Value reported": 0.92}
{"Compound": "CC1CCC2(CC1)NC(=O)N(CC(=O)c1cccn1C)C2=O (configuration not stated)", "Unit abbrev": "%", "Value reported": -3.24}
{"Compound": "CC(=O)Nc1ccc(NC(=O)C2CCCN2S(=O)(=O)c2cccc(C(F)(F)F)c2)cc1 (configuration not stated)", "Unit abbrev": "%", "Value reported": 17.1}
{"Compound": "C#CCOCCOCCOCCNc1nc(N2CCN(C(=O)CCCCCCCCCCNC(=O)Cn3cc(CCCCCN)nn3)CC2)nc(N2CCN(C(=O)CCCCCCCCCCNC(=O)[C@H](CO)n3cc(CCCSC)nn3)CC2)n1", "Unit abbrev": "%", "Value reported": 24.8}
{"Compound": "CN1C(=O)/C(=C/c2ccco2)SC1=Nc1cccc(C(=O)O)c1", "Unit abbrev": "%", "Value reported": 34}
{"Compound": "COC(=O)c1c(-c2ccsc2)oc2ccc(-c3cc(OC)c(OC)c(OC)c3)cc12", "Unit abbrev": "%", "Value reported": -1.27}
{"Compound": "N[C@@H](Cc1ccccc1)C(=O)N1CCOCC1", "Unit abbrev": "%", "Value reported": 0.06}
{"Compound": "O=C(CCn1c(=S)[nH]c2cc3c(cc2c1=O)OCO3)NCc1ccc(Cl)cc1", "Unit abbrev": "%", "Value reported": 2.43}

Q. So what's the measured inhibition for this one? COc1cc(NC(=S)N2CCCC(C)C2)c(OC)cc1Cl (configuration not stated)
A. 1.82

Q. I am curious: what inhibition value has been reported for CC(C)C(=O)N1CCC2(CC1)Oc1ccc(F)cc1C(=O)C21CC(c2ccccc2)=NO1 (configuration not stated) ?
A. 7.48

Q. What value of inhibition has been recorded for this entry: CCCC(C)n1[nH]c(=O)c2c(C)cc(C)nc21 (configuration not stated)
A. 11.1

Q. Please report the recorded inhibition for "CC(C)N(C(=O)Cn1cc(S(=O)(=O)CC(=O)N2CCOCC2)c2ccccc21)C(C)C" .
A. -2.48

Q. Can you look up the measured inhibition of "CCc1c(C)nc2c(-c3ccccc3)c(C)nn2c1Nc1ccc(NC(C)=O)cc1" for me?
A. -11.9

----------
# Experimental target: Lytic switch protein BZLF1 (Epstein-Barr virus (strain B95-8)) (UniProt P03206)
# Assay text: Zta-DNA interaction blockers, Epstein-Barr virus – biochemical, fluorescence polarization, single concentration, counter-screen for EBNA-1 inhibitor project, primary screen (AID 2234)
# Reported conditions: ZTA-DNA binding, at 11 µM
Hit rate of the full screen: of about 320,000 compounds, about 480 (0.15%) were called active. Rule as the data show it: active = inhibition above about 33%; inactive = the rest. For the sample, actives were picked, then their nearest neighbours and some compounds at random.
Respond only with the outcome that fits, drawn from t = active, f = inactive

{"Molecule": "Cn1cnc2c1c(=O)n(Cc1ccccc1C#N)c(=O)n2C", "Experimental target": "Lytic switch protein BZLF1 (Epstein-Barr virus (strain B95-8)) (UniProt P03206)", "Assigned category": "t"}
{"Molecule": "CN1CCN(Cc2nc3cc(NC(=O)COc4ccc([N+](=O)[O-])cc4)ccc3n2C)CC1", "Experimental target": "Lytic switch protein BZLF1 (Epstein-Barr virus (strain B95-8)) (UniProt P03206)", "Assigned category": "f"}
{"Molecule": "O=C(COC(=O)c1ccc(S(=O)(=O)Nc2ccccc2)cc1)NCC1CCCO1 (stereo not given)", "Experimental target": "Lytic switch protein BZLF1 (Epstein-Barr virus (strain B95-8)) (UniProt P03206)", "Assigned category": "f"}
{"Molecule": "CSc1ccccc1NC(=O)c1ccc2c(c1)CCN2S(C)(=O)=O", "Experimental target": "Lytic switch protein BZLF1 (Epstein-Barr virus (strain B95-8)) (UniProt P03206)", "Assigned category": "f"}
{"Molecule": "CC1=CC2=NC(=O)CC(C)(C(=O)N(CC(=O)NC(C)(C)C)Cc3ccccc3)N2C=C1 (stereo not given)", "Experimental target": "Lytic switch protein BZLF1 (Epstein-Barr virus (strain B95-8)) (UniProt P03206)", "Assigned category": "f"}

Q. What did the test return for "CCc1cccc(NC(=S)N(CCN(C)C)C2CCN(C(C)C)CC2)c1" ?
A. f

Q. Write down the call the test reported for this molecule. Item: "CCC(=O)Nc1ccc(Nc2nc(Cl)nc(Nc3ccc(NC(=O)CC)cc3)n2)cc1"
A. t
